Recorded OD450 by entry
Target: T1, human MSLN-R3-his protein (human, UniProt Q13421 487-598)
T1 construct: also called human MSLN-R3 protein; hMSLN-R3-his; not shown: His tag
T1 sequence (Q13421 495-606): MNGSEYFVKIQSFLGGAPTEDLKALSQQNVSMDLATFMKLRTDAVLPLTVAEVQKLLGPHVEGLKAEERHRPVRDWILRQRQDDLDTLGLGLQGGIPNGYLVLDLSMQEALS
Assay: ELISA, coated antigen; antibody 0.0001 nM
Give the value, in units of OD450, as a plain number.

Consider the following illustrative entries.
S009-F3.74.20 (antibody, human IgG1, kappa, V domains shown, Human-murine chimeric antibody, human IgG1/kappa constant regions) VH: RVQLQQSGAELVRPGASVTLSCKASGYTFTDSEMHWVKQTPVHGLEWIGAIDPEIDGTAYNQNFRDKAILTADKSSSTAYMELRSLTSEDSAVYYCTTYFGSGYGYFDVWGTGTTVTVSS VL: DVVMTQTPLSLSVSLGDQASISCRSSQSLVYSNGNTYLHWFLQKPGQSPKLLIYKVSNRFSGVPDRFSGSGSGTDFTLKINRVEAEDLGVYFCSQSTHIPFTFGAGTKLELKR	0.07
S009-F3.80.22 (antibody, human IgG1, kappa, V domains shown, Human-murine chimeric antibody, human IgG1/kappa constant regions) VH: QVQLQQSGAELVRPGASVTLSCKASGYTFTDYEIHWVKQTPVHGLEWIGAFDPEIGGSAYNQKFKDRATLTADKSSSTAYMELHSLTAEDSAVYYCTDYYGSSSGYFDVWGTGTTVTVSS VL: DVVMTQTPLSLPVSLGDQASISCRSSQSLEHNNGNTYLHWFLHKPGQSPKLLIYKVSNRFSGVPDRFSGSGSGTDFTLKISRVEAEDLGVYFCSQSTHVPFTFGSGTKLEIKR	0.08

Exam item: Return reported OD450; argument: S009-F3.45.21 (antibody, human IgG1, kappa, V domains shown, Human-murine chimeric antibody, human IgG1/kappa constant regions) VH: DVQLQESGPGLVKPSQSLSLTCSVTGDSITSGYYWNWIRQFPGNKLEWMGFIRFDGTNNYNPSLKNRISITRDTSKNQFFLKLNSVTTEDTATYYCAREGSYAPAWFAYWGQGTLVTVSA VL: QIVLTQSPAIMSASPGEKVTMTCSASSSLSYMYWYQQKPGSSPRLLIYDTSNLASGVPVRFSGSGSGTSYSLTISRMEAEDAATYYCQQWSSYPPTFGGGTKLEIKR
Marked response: 0.09
